B1: SASS6 (parent)
chain: QKELQDVGQSLRIKEQEVCKLQEQ

Variants of: B1
Test: protein stability index of a GFP-peptide fusion (GPS, HEK-293T) (PSI 1-6); higher = more stable;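 further: lentivirally expressed fusions sorted by FACS into six bins by GFP to DsRed ratio, PSI derived from sequencing read proportions per bin multiplied by bin number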
Conditions: c terminus: a fixed tail appended
# protein stability index >= 5 gives 1, anything below gives 0

| mutation | category.label |
| --- | --- |
| R12T | 0 |
| V7A | 1 |
| L21Y | 1 |
